- System: Liver microsomes
- Protocol Summary: Intrinsic clearance in human liver microsomes assessed per mg of protein
- Type: ADME, Microsome
Observable: clearance (µL/min/mg)

Sample answers from the record:
Smiles Structure	Reported Value
CCC(CC)Nc1nc(C)nc2c1c(C)nn2-c1ccc(OC)cc1C	64
CCCN(CCOC)c1nc(C)nc2c1c(C)nn2-c1cnc(N(C)C)cc1C	160

a. CCN(CCOC)c1nc(C)nc2c1c(C)nn2-c1ccc(OC)cc1C
b. CCCN(CCOC)c1nc(C)nc2c1cnn2-c1ccc(OC)cc1C
c. CC[C@H](COC)Nc1nc(C)nc2c1c(C)nn2-c1ccc(OC)cc1C
d. CCCN(CCO)c1nc(C)nc2c1c(C)nn2-c1ccc(OC)cc1C
e. CCCN(CCOC)c1nc(C)nc2c1c(C)nn2-c1ccc(OC)nc1OC
Prompt line: Put the compounds in ascending order of clearance. Reply with the item labels sorted in the order that was asked for.
Response line: b, c, d, a, e
(b: 16 µL/min/mg, c: 37 µL/min/mg, d: 80 µL/min/mg, a: 117 µL/min/mg, e: 218 µL/min/mg)

I. CCCN(CCOC)c1nc(C)nc2c1c(C)nn2-c1ccc(OC)nc1C
II. CC[C@@H](COC)Nc1nc(C)nc2c1c(C)nn2-c1ccc(OC)cc1C
Prompt line: Which entry shows the lesser value of clearance here, I or II ? Identify your selection by its label.
Response line: II
(II: 52 µL/min/mg, I: 117 µL/min/mg)

* * *

- Tested on: Liver microsomes
- Protocol Summary: Intrinsic clearance in human liver microsomes assessed per mg of protein
- Type: ADME, Microsome
Observable: clearance (µL/min/mg)

Sample answers from the record:
Smiles Structure	clearance [µL/min/mg]
CCCN(CCOC)c1nc(C)nc2c1c(C)nn2-c1ccc(C(N)=O)nc1C	38
CCCN(CCOC)c1nc(C)nc2c1c(C)nn2-c1ccc(C#N)cc1C	147
CCCN(CCOC)c1nc(C)nc2c1c(C)nn2-c1ccc(C(N)=O)cc1C	17
CCC[C@@H](CO)Nc1nc(C)nc2c1c(C)nn2-c1ccc(OC)cc1C	10

A. CCCNCc1nnc(Nc2nc(C)nc3c2c(C)nn3-c2ccc(OC)cc2C)o1
B. CCCN(CC(=O)N(C)C)c1nc(C)nc2c1c(C)nn2-c1ccc(OC)cc1C
C. COCCN(CCOC)c1nc(C)nc2c1c(C)nn2-c1ccc(OC)cc1C
Prompt line: Order these by clearance, descending, and give the full ranking. Answer by writing out the labels in the requested order.
Response line: C, A, B

* * *

- Study System: Corticotropin-releasing factor receptor 1 (Homo sapiens)
- Sequence (P34998 whole entry): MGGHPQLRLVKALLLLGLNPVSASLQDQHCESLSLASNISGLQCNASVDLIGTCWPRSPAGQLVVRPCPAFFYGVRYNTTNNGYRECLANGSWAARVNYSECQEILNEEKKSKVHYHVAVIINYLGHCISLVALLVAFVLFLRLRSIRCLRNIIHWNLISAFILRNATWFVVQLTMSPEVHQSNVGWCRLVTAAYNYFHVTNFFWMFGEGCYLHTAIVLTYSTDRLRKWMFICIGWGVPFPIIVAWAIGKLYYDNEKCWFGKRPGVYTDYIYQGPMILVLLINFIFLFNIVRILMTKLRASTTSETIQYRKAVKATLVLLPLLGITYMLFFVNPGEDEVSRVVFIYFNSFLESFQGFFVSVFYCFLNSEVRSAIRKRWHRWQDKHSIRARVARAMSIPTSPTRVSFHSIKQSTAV
- Protocol Summary: Antagonist activity at human recombinant CRF1 receptor expressed in CHO cells assessed as inhibition of CRF-induced cAMP production
pKi: −log10 of the molar value.
Observable: pKi

Known results for compounds:
Smiles Structure	pKi
CCN(CCOC)c1nc(C)nc2c1c(C)nn2-c1ccc(OC)cc1C	6.93
CCCNCc1nc(Nc2nc(C)nc3c2c(C)nn3-c2ccc(OC)cc2C)no1	6.91
CCCN(CCOC)c1nc(C)nc2c1cnn2-c1ccc(OC)cc1C	6.88
CCCN(CCO)c1nc(C)nc2c1c(C)nn2-c1ccc(OC)cc1C	6.89

I. CC[C@@H](COC)Nc1nc(C)nc2c1c(C)nn2-c1ccc(OC)cc1C
II. CCC[C@H](CO)Nc1nc(C)nc2c1c(C)nn2-c1ccc(OC)cc1C
Prompt line: Smaller pKi value, I vs II ? Reply with the label of the item you choose.
Response line: I
